The measurements presented in this section are drawn from patent US10029994B2.

# Tested on: A. B. ATCC 19606
# TEST PROTOCOL: MIC, broth microdilution (CLSI)
# Assay type: cell-based, Acinetobacter baumannii
# ASSAY CONDITIONS: Acinetobacter baumannii, ATCC19606; broth microdilution, 35° C., 20 hours; read-out: A. B. ATCC 19606 MIC
Field: MIC. Provide a value for each of the compounds that follow.

Which MIC reading was recorded for the compound C[C@@H](O)Cc1ccc(C#Cc2cc(CCC(C)(C(=O)NO)S(C)(=O)=O)no2)cc1 (some centres unmarked) ?
> 64 µg/mL

Could you do the same for `COCCCCC#Cc1cc(CN[C@](C)(C(=O)NO)[C@@H](O)c2cc(C)on2)no1` , please?
32 µg/mL

Could you do the same for CC(C)(O)C1CC(C#Cc2cc(CC[C@](C)(C(=O)NO)S(C)(=O)=O)no2)C1 (some centres unmarked) , please?
> 64 µg/mL

Could you do the same for `C[C@@](CCc1cc(/C(F)=C\C2CC2)on1)(C(=O)NO)S(C)(=O)=O` , please?
> 64 µg/mL

Could you do the same for `CC(C)C#Cc1cc(CC[C@](C)(C(=O)NO)S(C)(=O)=O)no1` , please?
> 64 µg/mL

Could you do the same for `CC#Cc1cc(CC[C@](C)(C(=O)NO)S(C)(=O)=O)no1` , please?
> 64 µg/mL

Could you do the same for `C[C@@](CCc1cc(/C=C/C2CC2)on1)(C(=O)NO)S(C)(=O)=O` , please?
> 64 µg/mL

Could you do the same for C[C@@](CCc1cc(C#CC2CC(F)C2)on1)(C(=O)NO)S(C)(=O)=O (some centres unmarked) , please?
> 64 µg/mL

Could you do the same for `CC1(C#Cc2cc(CC[C@](C)(C(=O)NO)S(C)(=O)=O)no2)CC1` , please?
> 64 µg/mL

Could you do the same for `C[C@@](CCc1cc(C#CCCC(F)F)on1)(C(=O)NO)S(C)(=O)=O` , please?
> 64 µg/mL

Could you do the same for `CC(C)(C)C#Cc1cc(CC[C@](C)(C(=O)NO)S(C)(=O)=O)no1` , please?
> 64 µg/mL

Could you do the same for CC(NCc1cc(C#CC2CC2)on1)(C(=O)NO)C(O)c1cc(C2CC2)on1 (centres unmarked) , please?
64 µg/mL

Could you do the same for `CC/C=C/c1cc(CC[C@](C)(C(=O)NO)S(C)(=O)=O)no1` , please?
> 64 µg/mL

Could you do the same for `CO[C@H](CO)c1ccc(C#Cc2cc(CC[C@](C)(C(=O)NO)S(C)(=O)=O)no2)cc1` , please?
> 64 µg/mL

Could you do the same for `C[C@@](CCc1cc(C#CC2CCC2)on1)(C(=O)NO)S(C)(=O)=O` , please?
> 64 µg/mL

Could you do the same for `Cc1cc([C@H](O)[C@](C)(NCc2cc(C#Cc3ccccc3)on2)C(=O)NO)no1` , please?
64 µg/mL

Could you do the same for CC(CCc1cc(C#Cc2ccccc2)on1)(C(=O)NO)S(C)(=O)=O (centres unmarked) , please?
64 µg/mL

---

# SUBJECT OF TEST: P. aeruginosa LpxC (Pseudomonas aeruginosa, UniProt P47205)
# Sequence (P47205 whole entry): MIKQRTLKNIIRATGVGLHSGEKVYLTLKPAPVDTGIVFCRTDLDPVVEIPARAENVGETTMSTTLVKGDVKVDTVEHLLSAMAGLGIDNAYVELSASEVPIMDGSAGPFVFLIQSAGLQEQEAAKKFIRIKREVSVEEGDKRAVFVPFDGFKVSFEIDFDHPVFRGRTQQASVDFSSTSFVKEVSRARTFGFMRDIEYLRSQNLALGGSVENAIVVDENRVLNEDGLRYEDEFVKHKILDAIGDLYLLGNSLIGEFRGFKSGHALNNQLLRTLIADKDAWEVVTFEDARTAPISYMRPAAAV
# TEST PROTOCOL: P. aeruginosa LpxC Inhibition Assay (LC-MS/MS)
# ASSAY CONDITIONS: 1 nM P. aeruginosa LpxC, 30 min pre-incubation, 2 μM UDP-3-O-(R-3-hydroxydecanoyl)-GlcNAc, pH 7.5
EXPERIMENTAL ENDPOINT: IC50

Which IC50 reading was recorded for the compound `C[C@@](CCc1cc(C#Cc2ccc([C@H](O)CO)cc2)on1)(C(=O)NO)S(C)(=O)=O` ?
< 1 nM

Could you do the same for `Cc1cc([C@H](O)[C@](C)(NCc2cc(C#Cc3ccccc3)on2)C(=O)NO)no1` , please?
< 1 nM

Could you do the same for `C[C@@](CCc1cc(C2=CCCCC2)on1)(C(=O)NO)S(C)(=O)=O` , please?
< 1 nM

Could you do the same for `Cc1cc([C@H](O)[C@](C)(NCc2cc(C#CC3CC3)on2)C(=O)NO)no1` , please?
< 1 nM

Could you do the same for `C[C@@](CCc1cc(C#CC2CC2)on1)(C(=O)NO)S(C)(=O)=O` , please?
3 nM

Could you do the same for CC(CCc1cc(C#Cc2ccccc2)on1)(C(=O)NO)S(C)(=O)=O (stereo not shown) , please?
< 1 nM

Could you do the same for `CCC#Cc1cc(CC[C@](C)(C(=O)NO)S(C)(=O)=O)no1` , please?
1 nM

Could you do the same for `CC(C)C#Cc1cc(CC[C@](C)(C(=O)NO)S(C)(=O)=O)no1` , please?
< 1 nM

Could you do the same for `C[C@@](CCc1cc(C#CCCC(F)F)on1)(C(=O)NO)S(C)(=O)=O` , please?
1 nM

Could you do the same for `C[C@@](CCc1cc(C#CC2CCC2)on1)(C(=O)NO)S(C)(=O)=O` , please?
< 1 nM

Could you do the same for CC(CCc1cc(C#Cc2ccc(CO)cc2)on1)(C(=O)NO)S(C)(=O)=O (stereo not shown) , please?
< 1 nM

Could you do the same for CC(C)(O)C1CC(C#Cc2cc(CC[C@](C)(C(=O)NO)S(C)(=O)=O)no2)C1 (stereo partly shown) , please?
< 1 nM

Could you do the same for CC(CCc1cc(C#Cc2ccc(CCO)cc2)on1)(C(=O)NO)S(C)(=O)=O (stereo not shown) , please?
< 1 nM

Could you do the same for `CC(C)(O)CCC#Cc1cc(CC[C@](C)(C(=O)NO)S(C)(=O)=O)no1` , please?
2 nM

Could you do the same for `C[C@@](CCc1cc(/C=C(\F)C2CC2)on1)(C(=O)NO)S(C)(=O)=O` , please?
< 1 nM

Could you do the same for `C[C@@](CCc1cc(C#CCCCF)on1)(C(=O)NO)S(C)(=O)=O` , please?
< 1 nM

---

# Test system: E. C. ATCC 25922
# TEST PROTOCOL: MIC, broth microdilution (CLSI)
# Format: cell-based, Escherichia coli
# ASSAY CONDITIONS: Escherichia coli, ATCC25922, 20 h, broth microdilution, 35° C., 20 hours; read-out: E. C. ATCC 25922 MIC
Field: MIC. Provide a value for each of the compounds that follow.
Quick note: give the figure in µg/mL, leave out the unit.

Which MIC reading was recorded for the compound C[C@@](CCc1cc(/C(F)=C\C2CC2)on1)(C(=O)NO)S(C)(=O)=O [Compound 4.5-2] ?
64

Could you do the same for C[C@@](CCc1cc(C#Cc2ccc([C@@H](O)CO)cc2)on1)(C(=O)NO)S(C)(=O)=O [Compound 2.8] , please?
1

Could you do the same for C[C@@](CCc1cc(/C(F)=C/C2CC2)on1)(C(=O)NO)S(C)(=O)=O [Compound 4.5-1] , please?
2

Could you do the same for CC(C)C#Cc1cc(CC[C@](C)(C(=O)NO)S(C)(=O)=O)no1 [Compound 1.6] , please?
4

Could you do the same for CCCC#Cc1cc(CC[C@](C)(C(=O)NO)S(C)(=O)=O)no1 [Compound 1.7] , please?
2

Could you do the same for CC/C=C/c1cc(CC[C@](C)(C(=O)NO)S(C)(=O)=O)no1 [Compound 4.1] , please?
8

Could you do the same for CC(C)(O)C1CC(C#Cc2cc(CC[C@](C)(C(=O)NO)S(C)(=O)=O)no2)C1 (some centres unmarked) [Compound 1.16] , please?
16

Could you do the same for C[C@@](CCc1cc(C#CC2CC(F)(F)C2)on1)(C(=O)NO)S(C)(=O)=O [Compound 1.12] , please?
16

Could you do the same for CC(NCc1cc(C#Cc2ccccc2)on1)(C(=O)NO)C(O)c1cc(CO)on1 (centres unmarked) [Compound 3.4] , please?
1

Could you do the same for CC1(C#Cc2cc(CC[C@](C)(C(=O)NO)S(C)(=O)=O)no2)CC1 [Compound 1.8] , please?
8

Could you do the same for CC(CCc1cc(C#Cc2ccccc2)on1)(C(=O)NO)S(C)(=O)=O (centres unmarked) [Compound 2.4] , please?
0.5

Could you do the same for C[C@@](CCc1cc(C#CC2CCC2)on1)(C(=O)NO)S(C)(=O)=O [Compound 1.2] , please?
2

Could you do the same for COCCCCC#Cc1cc(CN[C@](C)(C(=O)NO)[C@@H](O)c2cc(C)on2)no1 [Compound 3.5] , please?
16

Could you do the same for CC(NCc1cc(C#CC2CC2)on1)(C(=O)NO)C(O)c1cc(C2CC2)on1 (centres unmarked) [Compound 3.6] , please?
2

Could you do the same for CC(C)(C)C#Cc1cc(CC[C@](C)(C(=O)NO)S(C)(=O)=O)no1 [Compound 1.3] , please?
8

Could you do the same for C[C@@](CCc1cc(C#CCCCF)on1)(C(=O)NO)S(C)(=O)=O [Compound 1.10] , please?
8

Could you do the same for C[C@@](CCc1cc(C#Cc2ccc([C@H](O)CO)cc2)on1)(C(=O)NO)S(C)(=O)=O [Compound 2.7] , please?
1

Could you do the same for C[C@@](CCc1cc(C2=CCCCC2)on1)(C(=O)NO)S(C)(=O)=O [Compound 4.8] , please?
4

Could you do the same for C[C@@](CCc1cc(C#CC2CC(F)C2)on1)(C(=O)NO)S(C)(=O)=O (some centres unmarked) [Compound 1.13] , please?
16

Could you do the same for C[C@@](CCc1cc(/C=C/C2CC2)on1)(C(=O)NO)S(C)(=O)=O [Compound 4.2] , please?
8

Could you do the same for CO[C@H](CO)c1ccc(C#Cc2cc(CC[C@](C)(C(=O)NO)S(C)(=O)=O)no2)cc1 [Compound 2.6] , please?
0.5

Could you do the same for COCC1CC(C#Cc2cc(CC[C@](C)(C(=O)NO)S(C)(=O)=O)no2)C1 (single isomer, unassigned) [Compound 1.15a] , please?
8

Could you do the same for CCC#Cc1cc(CC[C@](C)(C(=O)NO)S(C)(=O)=O)no1 [Compound 1.5] , please?
4

Could you do the same for C[C@@](CCc1cc(C#CCCC(F)F)on1)(C(=O)NO)S(C)(=O)=O [Compound 1.11] , please?
32

Could you do the same for CC(CCc1cc(C#Cc2ccc(CO)cc2)on1)(C(=O)NO)S(C)(=O)=O (centres unmarked) [Compound 2.1] , please?
2

Could you do the same for C[C@@](CCc1cc(C#CC2CC2)on1)(C(=O)NO)S(C)(=O)=O [Compound 1.1] , please?
2

Could you do the same for COC(CO)c1ccc(C#Cc2cc(CCC(C)(C(=O)NO)S(C)(=O)=O)no2)cc1 (centres unmarked) [Compound 2.3] , please?
1

Could you do the same for CC(CCc1cc(C#Cc2ccc(CCO)cc2)on1)(C(=O)NO)S(C)(=O)=O (centres unmarked) [Compound 2.2] , please?
0.25

Could you do the same for C[C@@](CCc1cc(C#CCCF)on1)(C(=O)NO)S(C)(=O)=O [Compound 1.9] , please?
32

Could you do the same for Cc1cc([C@H](O)[C@](C)(NCc2cc(C#CC3CCC3)on2)C(=O)NO)no1 [Compound 3.2] , please?
1

Could you do the same for C[C@@H](O)Cc1ccc(C#Cc2cc(CCC(C)(C(=O)NO)S(C)(=O)=O)no2)cc1 (some centres unmarked) [Compound 2.5] , please?
0.25

Could you do the same for C[C@@](CCc1cc(/C=C(\F)C2CC2)on1)(C(=O)NO)S(C)(=O)=O [Compound 4.7] , please?
8

Could you do the same for CC#Cc1cc(CC[C@](C)(C(=O)NO)S(C)(=O)=O)no1 [Compound 1.4] , please?
4
